assay: Partition coefficient (logP) (hexadecane); type: physicochemical; conditions: hexadecane/water

molecule: COCCc1ccc(OCC(O)CNC(C)C)cc1 (centres undefined)
logP: -0.4
--
molecule: CC(C)Cc1ccc(C(C)C(=O)O)cc1 (centres undefined)
logP: 1.95
--
molecule: C=CCc1ccccc1OCC(O)CNC(C)C (centres undefined)
logP: 1.3
--
molecule: CC(=O)CC(c1ccccc1)c1c(O)c2ccccc2oc1=O (centres undefined)
logP: 1
--
molecule: O=C(O)c1ccccc1O
logP: -1
--
molecule: CN(C)CCCN1c2ccccc2Sc2ccc(Cl)cc21
logP: 4.7
--
molecule: O=C1NC(=O)C(c2ccccc2)(c2ccccc2)N1
logP: -0.3
--
molecule: CC(C)(C)NC[C@H](O)COc1nsnc1N1CCOCC1
logP: -1
--
molecule: N=C(N)N/N=C/c1c(Cl)cccc1Cl
logP: -1.6

The measurements presented in this section are drawn from ChEMBL document CHEMBL1134374.
